- Tested on: SUDHL5 cells
- Assay Method Text: Induction of cytotoxicity in SUDHL5 cells (Assay 6)
- Assay type: cell-based
- Assay Setup: Homo sapiens, SU-DHL-5, 5 h, 5 h, CellTiter-Glo; read-out: Cytotox SUDHL5 IC50 (median)
Hi there, I'd appreciate the recorded IC50 for every entry that follows.
State the answer as a number, implicitly in nM.

Can you look up the measured IC50 of Cc1c2c(nn1C)C(C1CC1)OCCCCn1c(C(=O)O)c(CCCOc3cccc4ccccc34)c3ccc(Cl)c-2c31 (racemic) for me?
3000

// same read-out, input: CCc1c2c(nn1C)C(CCN1CC(F)C1)OCCCCn1c(C(=O)O)c(CCCOc3cccc4cc(F)ccc34)c3ccc(Cl)c-2c31 (racemic)
84

Request: CCc1c2c(nn1C)C1CCCCN1CCCCn1c(C(=O)O)c(CCCOc3cccc4ccccc34)c3ccc(Cl)c-2c31 (racemic) [Example 102]
800

Okay, and Cc1c2c(nn1C)C(CCN1CCOCC1)OCCCCn1c(C(=O)O)c(CCCOc3cccc4cc(F)ccc34)c3ccc(F)c-2c31 (single isomer, unassigned; enantiomer 2) [Example 21] ?
12000

# iterate: CCc1c2c(nn1C)C(CC(C)(C)O)OCCCCn1c(C(=O)O)c(CCCOc3cccc4cc(F)ccc34)c3ccc(Cl)c-2c31 (racemic)
380

// repeat for CCc1c2c(nn1C)C(CCN1CCC(F)(F)C1)OCCCCn1c(C(=O)O)c(CCCOc3cccc4cc(F)ccc34)c3ccc(Cl)c-2c31 (racemic) [Example 55] and report
41

Thanks! And Cc1c2c(nn1C)C(CCO)OCCCCn1c(C(=O)O)c(CCCOc3cccc4ccccc34)c3ccc(Cl)c-2c31 (racemic) ?
400

Please give the result for COCCC1OCCCCn2c(C(=O)O)c(CCCOc3cccc4ccccc34)c3ccc(Cl)c(c32)-c2c1nn(C)c2C (racemic) too.
390

----------
- Test system: SUDHL5 cells
- Assay Method Text: Antiproliferation assay SUDHL5 (Assay 7)
- Assay type: cell-based
- Assay Setup: Homo sapiens, SU-DHL-5, 72 h, 72 h, CellTiter-Glo; read-out: Antiproli SUDHL5 IC50 (median)
- Description: Assessment of the Anti-Proliferative Effect of Compounds in Different Cell Lines The impact of compounds on the proliferation of different cell lines was assessed using the CellTiter-Glo® Luminescent Cell Viability reagent from Promega (G7573). In parallel, cells were plated in a reference (day 0) plate for time zero determination. […] After 72 h incubation, the treated plates were measured in the same way as the day 0 plate mentioned above. […]
pIC50: −log10 of the molar value.
So basically: pIC50 at 6 or higher? That is Satisfied. Lower than 6? That is Not satisfied.

Tell me whether pIC50 is at least 6 here: COCCC1OCCCCn2c(C(=O)O)c(CCCOc3cccc4ccccc34)c3ccc(Cl)c(c32)-c2c1nn(C)c2C (racemic)
Satisfied

What would you report for CCc1c2c(nn1C)C(CCCN1CCOCC1)OCCCCn1c(C(=O)O)c(CCCOc3cccc4cc(F)ccc34)c3ccc(Cl)c-2c31 (racemic) ?
Satisfied

Moving on to the next compound: CCc1c2c(nn1C)C(CCO)OCCCCn1c(C(=O)O)c(CCCOc3cccc4cc(F)ccc34)c3ccc(Cl)c-2c31 (single isomer, unassigned; enantiomer 1) [Example 45]
Satisfied

Also check CCc1c2c(nn1C)C(c1ccccc1)OCCCCn1c(C(=O)O)c(CCCOc3cccc4cc(F)ccc34)c3ccc(Cl)c-2c31 (racemic)
Not satisfied

Now this one: CCc1c2c(nn1C)C(CCN1CCC(F)(F)C1)OCCCCn1c(C(=O)O)c(CCCOc3cccc4cc(F)ccc34)c3ccc(Cl)c-2c31 (single isomer, unassigned; enantiomer 1) [Example 58]
Satisfied

And the next one, Cc1c2c(nn1C)C(CCO)OCCCCn1c(C(=O)O)c(CCCOc3cccc4ccccc34)c3ccc(Cl)c-2c31 (racemic) ?
Satisfied

Do the same for CCc1c2c(nn1C)C(CCN1CCOCC1)OCCCCn1c(C(=O)O)c(CCCOc3cccc4ccccc34)c3ccc(F)c-2c31 (racemic) please
Satisfied

Try this compound too: CCc1c2c(nn1C)C(CCC(C)(C)O)OCCCCn1c(C(=O)O)c(CCCOc3cccc4cc(F)ccc34)c3ccc(Cl)c-2c31 (racemic)
Satisfied

Item: Cc1c2c(nn1C)C(CCN1CCOCC1)OCCCCn1c(C(=O)O)c(CCCOc3cccc4ccccc34)c3cccc-2c31 (racemic)
Satisfied

Item: Cc1c2c(nn1C)C(CCN1CCOCC1)OCCCCn1c(C(=O)O)c(CCCOc3cccc4ccccc34)c3ccc(F)c-2c31 (racemic)
Satisfied

Also Cc1c2c(nn1C)C(C1CC1)OCCCCn1c(C(=O)O)c(CCCOc3cccc4ccccc34)c3ccc(Cl)c-2c31 (racemic) ?
Not satisfied
